log10 of IC50 data for CYP2D6 (Homo sapiens, UniProt P10635) follow.
assay.readout: log10 of IC50 (log10 of the value in µM)

compound	log10 of IC50
CCOC(=O)c1nc2ccccc2c(=O)n1C1C[C@H]2CCC[C@@H](C1)N2C1C[C@H]2CCC[C@@H](C1)C2 (stereo partly shown) [8 (D12b)]	0.99
O=C(O)c1nc2ccccc2c(=O)n1C1C[C@H]2CCC[C@@H](C1)N2C1C[C@H]2CCC[C@@H](C1)C2 (stereo partly shown)	0.41
O=c1[nH]c2ccccc2c(=O)n1C1C[C@H]2CCC[C@@H](C1)N2C1C[C@H]2CCC[C@@H](C1)C2 (stereo partly shown)	0.95
O=C(O)CNC(=O)Cn1c(=O)n(C2C[C@H]3CCC[C@@H](C2)N3C2C[C@H]3CCC[C@@H](C2)C3)c(=O)c2ccccc21 (stereo partly shown) [18 (D28a)]	0.20
CCC1C[C@@H]2CC(N3[C@@H]4CCC[C@H]3CC(n3c(=O)c5ccccc5n(CC(=O)O)c3=O)C4)C[C@H](C1)C2 (stereo partly shown) [24 (D459a)]	1.27

###

# target.entity: CYP3A4 (Homo sapiens, UniProt P08684)
# Construct: using commercially available pooled human hepatic microsome; from tissue; host or cells: pooled human hepatic microsomes
# Sequence (P08684 whole entry): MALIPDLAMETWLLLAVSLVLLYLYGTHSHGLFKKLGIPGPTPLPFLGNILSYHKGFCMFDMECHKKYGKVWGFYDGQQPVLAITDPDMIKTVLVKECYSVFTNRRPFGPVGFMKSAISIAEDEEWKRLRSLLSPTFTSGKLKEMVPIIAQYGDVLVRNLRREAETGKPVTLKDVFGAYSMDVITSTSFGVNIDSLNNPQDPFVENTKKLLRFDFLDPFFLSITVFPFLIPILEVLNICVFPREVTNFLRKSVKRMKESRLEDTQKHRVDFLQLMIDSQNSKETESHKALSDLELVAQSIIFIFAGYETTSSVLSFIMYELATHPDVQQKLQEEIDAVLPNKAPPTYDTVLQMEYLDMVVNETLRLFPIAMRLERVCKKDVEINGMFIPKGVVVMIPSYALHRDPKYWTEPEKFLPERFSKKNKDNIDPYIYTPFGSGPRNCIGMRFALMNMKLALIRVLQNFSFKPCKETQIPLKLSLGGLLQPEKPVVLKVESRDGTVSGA
# experiment.notes: Cytochrome P450 inhibition, pooled human hepatic microsome, CYP3A4
# Format: in vitro ADME

molecule	unit.symbol	readout.qualifier	IC50
O=C(O)Cn1c(=O)n(C2C[C@H]3CCC[C@@H](C2)N3C2C[C@H]3CCCC[C@@H](C2)C3)c(=O)c2ccccc21 (stereo partly shown)	µM	=	2.3
CCOC(=O)c1nc2ccccc2c(=O)n1C1C[C@H]2CCC[C@@H](C1)N2C1C[C@H]2CCC[C@@H](C1)C2 (stereo partly shown) [8 (D12b)]	µM	=	6.5
O=c1[nH]c2ccccc2c(=O)n1C1C[C@H]2CCC[C@@H](C1)N2C1C[C@H]2CCC[C@@H](C1)C2 (stereo partly shown)	µM	>	20
O=C(O)Cn1c(=O)n(C2C[C@H]3CCC[C@@H](C2)N3C2C[C@H]3CCC[C@@H](C2)C3)c(=O)c2ccccc21 (stereo partly shown)	µM	>	20
CCC1C[C@@H]2CC(N3[C@@H]4CCC[C@H]3CC(n3c(=O)c5ccccc5n(CC(=O)O)c3=O)C4)C[C@H](C1)C2 (stereo partly shown) [24 (D459a)]	µM	=	5.8
O=C(O)c1nc2ccccc2c(=O)n1C1C[C@H]2CCC[C@@H](C1)N2C1C[C@H]2CCC[C@@H](C1)C2 (stereo partly shown)	µM	>	20
O=C(O)CNC(=O)Cn1c(=O)n(C2C[C@H]3CCC[C@@H](C2)N3C2C[C@H]3CCC[C@@H](C2)C3)c(=O)c2ccccc21 (stereo partly shown) [18 (D28a)]	µM	>	20
